# ASSAY: Toxicity liver stage against HepG2, at 10uM
# Format: cell-based
# Parameters: test concentration 10 uM, cell line HepG2-A16-CD81EGFP
# CONDITION NOTES: human, HepG2-A16-CD81EGFP cells; read-out: INHIBITION
MEASURED ATTRIBUTE: cytotoxicity at 10 µM (%)
Expressed in %, but write only the number.

Value of cytotoxicity at 10 µM reported for the molecule COc1cccc(S(=O)(=O)NC(=O)COC2CCCC2)c1 is -7.1

Value of cytotoxicity at 10 µM reported for the molecule O=C1CCSCC(C(=O)N2CCN(C3CCCCC3)CC2)N1 (stereo not given) is -18.7

Value of cytotoxicity at 10 µM reported for the molecule O=C(Cc1cccc(F)c1F)NS(=O)(=O)c1cncc(Cl)c1 is 14.5

Value of cytotoxicity at 10 µM reported for the molecule COc1ccc(C(=O)N2CCCCC2c2nc(C)cs2)nn1 (stereo not given) is -6.77

Value of cytotoxicity at 10 µM reported for the molecule Cn1cc(Br)c(C(=O)NCCCn2cc(Cl)cn2)n1 is -1.49

Value of cytotoxicity at 10 µM reported for the molecule O=C1N(CCc2ccccc2)CCCC1(O)CNCc1ccc(F)cc1 (stereo not given) is -1.24

Value of cytotoxicity at 10 µM reported for the molecule COc1ccc(F)c(NCc2ccc(C(=O)N(C)C)[nH]2)c1 is 7.31

Value of cytotoxicity at 10 µM reported for the molecule CC1N(c2cnn(C)c2)C(=O)COC12CCN(c1ncccn1)CC2 (stereo not given) is 0.952

Value of cytotoxicity at 10 µM reported for the molecule Cn1cc(I)c(C(=O)NC2CCCCC2)n1 is 18.1

Value of cytotoxicity at 10 µM reported for the molecule OCC(O)CSCc1cn(-c2ccc(Cl)cc2)nn1 (stereo not given) is 3.2

Moving on to the next molecule.
Value of cytotoxicity at 10 µM reported for the molecule O=C(NCCN1CCOCC1)c1nc2ccccc2c(=O)[nH]1 is 11.3

* * *

Consider the following compounds and their measured cytotoxicity at 10 µM readings.
# ASSAY: Toxicity liver stage against HepG2, at 10uM
# Assay type: cell-based
# Set-up: test concentration 10 uM, cell line HepG2-A16-CD81EGFP
# CONDITION NOTES: human, HepG2-A16-CD81EGFP cells; read-out: INHIBITION
Expressed in %, but write only the number.

Value of cytotoxicity at 10 µM reported for the compound COC(=O)c1cc(OCC2CCC2)cc(C(=O)N[C@H]2CCCC[C@@H]2O)c1 is -2.94

Value of cytotoxicity at 10 µM reported for the compound Cc1ccc(N2CCC3(CCC(=O)N3Cc3ccncc3)CC2)nn1 is -110

Value of cytotoxicity at 10 µM reported for the compound CCOCc1ccc(CNC2=NCCCN2)cc1 is -51.5

Value of cytotoxicity at 10 µM reported for the compound CC(C)CC(=O)NCCCc1cc(N)n(-c2ccccc2)n1 is -5.29

Value of cytotoxicity at 10 µM reported for the compound COCCCOc1ccc(C(=O)N(C)CCC(C)C)cn1 is 6.19

Value of cytotoxicity at 10 µM reported for the compound CCn1nnc2c1C(COCCN(C)C)CN(c1nncs1)C2 (stereo not drawn) is 1.52

Value of cytotoxicity at 10 µM reported for the compound COCCCNC(=O)c1ccccc1-n1cc(CN(C)C)cn1 is -22.4

Value of cytotoxicity at 10 µM reported for the compound CCN(CC)C(=O)[C@@H]1C[C@@H](N)CN1C(=O)c1cc2c([nH]c1=O)CCC2 is -2.79

Value of cytotoxicity at 10 µM reported for the compound O=C(Cn1cnc(NC(=O)CC2CCCC2)n1)NCc1ccccc1 is -4.1

Value of cytotoxicity at 10 µM reported for the compound CC(C)c1nccn1C1CCCN(C(=O)c2ccc3[nH]cnc3c2)C1 (stereo not drawn) is -8.24

Others:
Value of cytotoxicity at 10 µM reported for the compound O=C(Nc1ccc2c(c1)OCO2)c1ccc(N2CCCC2)nn1 is 54.7

Value of cytotoxicity at 10 µM reported for the compound CSc1nccc(N2CCC3(CCCN(Cc4ccc(F)cc4)C3)C2)n1 (stereo not drawn) is 9.5

Value of cytotoxicity at 10 µM reported for the compound O=C(c1ccc(S(=O)(=O)NCC(F)F)cc1)N1CC[C@H]2CNC[C@H]21 is -14

Value of cytotoxicity at 10 µM reported for the compound CCS(=O)(=O)Nc1cnn(Cc2cccc(Cl)c2)c1 is -11.5

Value of cytotoxicity at 10 µM reported for the compound Cc1noc(C)c1C(=O)N1CC[C@H]2C[C@@H](c3ccncn3)O[C@@H]2C1 is -2.16

Value of cytotoxicity at 10 µM reported for the compound CNC(=O)Cc1noc(Cc2cccc(Br)c2)n1 is 1.06
